assay: Stability in human plasma assessed as half life at 37 degreeC by LC-MS/MS analysis; format: ADME, cell-free
Hi there, I'd appreciate the recorded half-life for every entry that follows.

Could I get half-life for every one of these entries?
1. C/C(=N\OC(=O)NCCN(C)C)[C@H]1CC[C@H]2[C@@H]3CCC4=CC(=O)CC[C@]4(C)[C@H]3CC[C@]12C.Cl
2. C/C(=N\OC(=O)N1CCC[C@H]1CN)[C@H]1CC[C@H]2[C@@H]3CCC4=CC(=O)CC[C@]4(C)[C@H]3CC[C@]12C.Cl
3. CNCCCN(C)C(=O)O/N=C(\C)[C@H]1CC[C@H]2[C@@H]3CCC4=CC(=O)CC[C@]4(C)[C@H]3CC[C@]12C.Cl
4. CNCC(C)(C)CN(C)C(=O)O/N=C(\C)[C@H]1CC[C@H]2[C@@H]3CCC4=CC(=O)CC[C@]4(C)[C@H]3CC[C@]12C.Cl
5. C/C(=N\OC(=O)NC[C@@H]1CCCN1)[C@H]1CC[C@H]2[C@@H]3CCC4=CC(=O)CC[C@]4(C)[C@H]3CC[C@]12C.Cl
6. C/C(=N\OC(=O)NCCN)[C@H]1CC[C@H]2[C@@H]3CCC4=CC(=O)CC[C@]4(C)[C@H]3CC[C@]12C.Cl

RESULT:
1. > 3.5 h
2. > 4 h
3. > 4 h
4. > 4 h
5. > 4 h
6. > 2 h

QUERY: So what's the measured half-life for this one? `CNC[C@@H]1CCCN1C(=O)O/N=C(\C)[C@H]1CC[C@H]2[C@@H]3CCC4=CC(=O)CC[C@]4(C)[C@H]3CC[C@]12C.Cl`
RESULT: > 4 h
